tested on: NCI-H226 lung; assay: NCI tumour cell line growth inhibition, 48 h
Recorded measurements of TGI, one per entry
Number only, in µM; omit the unit.

Example results:
Cc1ccc(S(=O)(=O)N(CCNC(=O)c2cccc(O)c2O)c2cc3c4c(c2)Oc2cccc5c2C4(C)c2c(cccc2O3)O5)cc1
65.8
COC(=O)c1cc2cc(/C=C3/SC(=S)N(N(C(C)=O)C(C)=O)C3=O)oc2n1Cc1ccccc1
45.2
FC(F)(F)c1cccc(-c2[nH]ncc2-c2nnnn2-c2ccccc2)c1
31.1

What measured TGI goes with Cc1cc(N2CCOCC2)nc(NCc2cc(Nc3ccnc4cc(Cl)ccc34)ccc2F)n1 ?
4.31
